B1: Calcium-binding protein 2, residues 155 to 219; numbered along this chain, Q9NPB3 (parent)
chain: RELRDAFREFDTNGDGRISVGELRAALKALLGERLSQREVDEILQDVDLNGDGLVDFEEFVRMMS

variants of: B1; experiment: abundance fitness (aPCA) (normalised: wild type 0, dead -1); higher = more abundant; growth selection in yeast, the domain comes from the species named; conditions: Homo sapiens
Observed property: abundance fitness
Provide a numeric answer; units are not to be included.

Query string: Quick one: abundance fitness for R1N ?
Result string: 0.078

Data provenance: the Human Domainome abundance scans (Beltran et al. 2025)
